In this section, each of the compounds is paired with its reported cell number change.
assay: qHTS Assay for Lipid Storage Modulators in Drosophila S3 Cells; settings: BODIPY lipid droplet fluorescence, 18-24 h, cells fed with added oleic acid; measured here: cell count max response;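 further: cells counted by Cell Tracker Red CMTPX staining in the red channel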
About 2,100 (0.66%) of roughly 320,000 compounds were called active. About 53% were inconclusive and are not listed. The full list was thinned out, with actives kept by preference.
measured_attribute: cell number change (%)

INSERT INTO results (compound, measured_attribute, value_observed) VALUES
  ('CC(C)(/C=N/O)N(O)C=C1C=CC(=O)C=C1', 'cell number change', 1.11),
  ('O=C(COC(=O)/C=C/c1cccs1)Nc1ccccc1Cl', 'cell number change', 11.7),
  ('O=C(COC(=O)c1cccs1)Nc1ccccc1Cl', 'cell number change', 2.94),
  ('COc1ccc(NC(=O)Nc2nnc(-c3ccco3)s2)cc1', 'cell number change', 3.5),
  ('COc1cccc(-c2cccc(NC(=O)C3CCN(CC4CCOC4)CC3)c2)c1 (centres undefined)', 'cell number change', -23.3),
  ('O=C(NCc1ccccc1)C1C2C=CC3(CN(Cc4cccnc4)C(=O)C13)O2 (centres undefined)', 'cell number change', -20),
  ('Cc1ccc(/C=C2\Oc3cc(OC(=O)N4CCOCC4)ccc3C2=O)cc1', 'cell number change', 0.311),
  ('COc1ccc(CC(=O)Nc2cccc(S(=O)(=O)N3CCCCCC3)c2)cc1OC', 'cell number change', -6.09),
  ('CN(Cc1ccccc1)CC(O)COc1ccc(CNCCOc2cccnc2)cc1 (centres undefined)', 'cell number change', 3.58),
  ('O=C1NC2(CCCCC2)Cc2ccccc21', 'cell number change', 2.36),
  ('COc1ccc(CNC(=O)C/C(C)=N/NC(=O)C23CC4CC(CC(C4)C2)C3)cc1', 'cell number change', 9.74),
  ('O=C(COC(=O)c1ccccn1)Nc1ccccc1Cl', 'cell number change', -8.3),
  ('COc1ccc(CC(=O)Nc2cccc(S(=O)(=O)N3CCOCC3)c2)cc1OC', 'cell number change', -21.4),
  ('O=C(CN1CCN(S(=O)(=O)c2ccc3ccccc3c2)CC1)Nc1ccc(N2CCOCC2)cc1', 'cell number change', -8.53),
  ('NC(=O)CC(NC(=O)Cc1ccc(Br)cc1)c1ccc(NCCc2ccc(Cl)cc2)c([N+](=O)[O-])c1 (centres undefined)', 'cell number change', -9.69),
  ('CNc1cc(C)c(C#N)c2nc3ccccc3n12', 'cell number change', -18.9),
  ('CS(=O)(=O)N(CC(=O)N1CCN(c2ccccc2F)CC1)C1CCCCC1', 'cell number change', -9.38),
  ('CCOC(=O)/C(=N\Nc1cccc(Cl)c1)Sc1nnc(-c2ccc(OC)cc2)n1C', 'cell number change', 1.18),
  ('COc1ccccc1CNS(=O)(=O)c1ccc(-n2cccn2)cc1', 'cell number change', -13.2),
  ('O=C(COC(=O)c1cccs1)Nc1ccccc1C(F)(F)F', 'cell number change', -6.32),
  ('C#CCOC(=O)C[N+](C)(C)CC=C', 'cell number change', 12.5),
  ('Cc1ccc(-c2cccc(C3CC=CC4C3C(=O)N(Cc3ccccc3)C4c3ccc(C(F)(F)F)cc3)c2)cc1 (centres undefined)', 'cell number change', 0.818),
  ('O=S(=O)(NCC(c1cccs1)N1CCc2ccccc2C1)c1ccccc1 (centres undefined)', 'cell number change', 2.02),
  ('COc1ccc(CC(=O)Nc2cc(S(=O)(=O)N3CCCCC3)ccc2C)cc1OC', 'cell number change', -3.08),
  ('O=C(CN1CCN(S(=O)(=O)c2ccccc2)CC1)Nc1ccnn1C1CCCC1', 'cell number change', -2.45),
  ('COc1cc(C(=O)NC(c2ccccc2)c2ccccc2)cc(Cl)c1OC', 'cell number change', 14.2),
  ('O=C(NCCc1ccccc1)C(=O)c1c(-c2ccccc2)cc2ccccn12', 'cell number change', -0.29),
  ('COc1cc(C2CC(=O)Oc3c(C(CCN4CCN(c5ccccc5)CC4)c4ccc(N(C)C)cc4)c(OC)cc(OC)c32)cc(OC)c1OC (centres undefined)', 'cell number change', -0.692),
  ('O=C1C2C(c3cccc(/C=C/c4ccccc4)c3)CC=CC2C(c2ccc(C(F)(F)F)cc2)N1Cc1ccccc1 (centres undefined)', 'cell number change', -0.28),
  ('Cc1nnc(SCc2ccc(F)cc2Cl)s1', 'cell number change', -1.12),
  ('COc1ccc(/C=C2/N=C(SC3CCOC3=O)N(c3cccc(OC)c3)C2=O)cc1 (centres undefined)', 'cell number change', -7.72),
  ('O=C(Cc1ccc(Br)cc1)Nc1cccc(S(=O)(=O)N2CCOCC2)c1', 'cell number change', -12.5),
  ('COC(=O)/C=C1/SC(=Nc2ccc(Cl)c(Cl)c2)NC1=O', 'cell number change', 7.13),
  ('Cc1ccc(-c2nc(C#N)c(NCCN3CCCCC3)o2)cc1', 'cell number change', 1.25),
  ('CCC(C)Nc1cc(C)c(C#N)c2nc3ccccc3n12 (centres undefined)', 'cell number change', 5.52),
  ('O=C(COC(=O)C1CCN(c2ccc(C(F)(F)F)cn2)CC1)NCc1ccc(Cl)cc1Cl', 'cell number change', 7.81),
  ('COC(=O)N1[C@H](Cc2ccccc2)C=C[C@]1(C)C(=O)O', 'cell number change', -7.24),
  ('C=C1CCN(C(C(=O)OC)C(C)C)S(=O)(=O)c2ccccc21 (centres undefined)', 'cell number change', 0.159),
  ('O=C(Nc1cccc(-c2cccc(Cl)c2)c1)C1CCN(CC2CCOC2)CC1 (centres undefined)', 'cell number change', 26.5),
  ('O=C(CSc1ccccn1)N1CCOCC1', 'cell number change', -9.67),
  ('COc1cc(Cl)c(S(=O)(=O)NCCCn2ccnc2)cc1Cl', 'cell number change', 29),
  ('COc1ccccc1CCC(=O)Nc1cccc(S(=O)(=O)N2CCOCC2)c1', 'cell number change', 12.7),
  ('Cc1cnc(C(=O)OCC(=O)c2ccc(F)c(F)c2)cn1', 'cell number change', 6.94),
  ('O=S(=O)(NCc1ccccc1)c1ccc(-n2cccn2)cc1', 'cell number change', -18);
